system: Neuron; assay: Neuroprotective effect against H202-induced Sprague-Dawley rat neuron injury assessed as necrotic cells by annexin V-propidium iodide staining by flow cytometry (reference value: 1.02% +/-0.4%); format: functional
Value Kind: Activity (%)

[[record]]
molecule = "CC1=CCCC(C)(C)C1/C=C/C(C)(O)c1cc(C)ccc1C (configuration not stated)"
value_unit = "%"
observed_measurement = 0.045

[[record]]
molecule = "CCOc1ccc(C(C)(O)/C=C/C2C(C)=CCCC2(C)C)cc1 (configuration not stated)"
value_unit = "%"
observed_measurement = 1.32

[[record]]
molecule = "CCCOc1ccc(C(C)(O)/C=C/C2C(C)=CCCC2(C)C)cc1 (configuration not stated)"
value_unit = "%"
observed_measurement = 3

[[record]]
molecule = "COc1ccc(C(C)(O)/C=C/C2=C(C)CCCC2(C)C)cc1 (configuration not stated)"
value_unit = "%"
observed_measurement = 3.42

[[record]]
molecule = "COc1ccccc1C(C)(O)/C=C/C1C(C)=CCCC1(C)C (configuration not stated)"
value_unit = "%"
observed_measurement = 0.42

[[record]]
molecule = "CCOc1ccc(C(C)(O)/C=C/C2=C(C)CCCC2(C)C)cc1 (configuration not stated)"
value_unit = "%"
observed_measurement = 0.93

[[record]]
molecule = "CC1=CCCC(C)(C)C1/C=C/C(C)(O)c1ccc(C(F)(F)F)cc1 (configuration not stated)"
value_unit = "%"
observed_measurement = 0.057

[[record]]
molecule = "COc1ccc(C(C)(O)/C=C/C2C(C)=CCCC2(C)C)cc1 (configuration not stated)"
value_unit = "%"
observed_measurement = 1.14

[[record]]
molecule = "CCCCCOc1ccc(C(C)(O)/C=C/C2C(C)=CCCC2(C)C)cc1 (configuration not stated)"
value_unit = "%"
observed_measurement = 0.61

[[record]]
molecule = "COc1cccc(C(C)(O)/C=C/C2C(C)=CCCC2(C)C)c1 (configuration not stated)"
value_unit = "%"
observed_measurement = 3.89

[[record]]
molecule = "CC1=CCCC(C)(C)C1/C=C/C(C)(O)c1ccc(C(C)(C)C)cc1 (configuration not stated)"
value_unit = "%"
observed_measurement = 0.05

[[record]]
molecule = "COc1cccc(C(C)(O)/C=C/C2=C(C)CCCC2(C)C)c1 (configuration not stated)"
value_unit = "%"
observed_measurement = 7.39

[[record]]
molecule = "CC1=CCCC(C)(C)C1/C=C/C(C)(O)c1ccccc1 (configuration not stated)"
value_unit = "%"
observed_measurement = 0.05

[[record]]
molecule = "CSc1ccc(C(C)(O)/C=C/C2C(C)=CCCC2(C)C)cc1 (configuration not stated)"
value_unit = "%"
observed_measurement = 0.58

[[record]]
molecule = "COc1cc(/C=C/C(=O)CC(=O)/C=C/c2ccc(O)c(OC)c2)ccc1O [CURCUMIN]"
value_unit = "%"
observed_measurement = 1.89

[[record]]
molecule = "CSc1ccc(C(C)(O)/C=C/C2=C(C)CCCC2(C)C)cc1 (configuration not stated)"
value_unit = "%"
observed_measurement = 0.21

[[record]]
molecule = "COc1ccc(C(C)(O)/C=C/C2C(C)=CCCC2(C)C)cc1OC (configuration not stated)"
value_unit = "%"
observed_measurement = 0.065

[[record]]
molecule = "COc1ccccc1C(C)(O)/C=C/C1=C(C)CCCC1(C)C (configuration not stated)"
value_unit = "%"
observed_measurement = 0.32

[[record]]
molecule = "C[C@]12N[C@H](Cc3ccccc31)c1ccccc12.O=C(O)/C=C\\C(=O)O [DIZOCILPINE MALEATE]"
value_unit = "%"
observed_measurement = 1.96

[[record]]
molecule = "CCCCCOc1ccc(C(C)(O)/C=C/C2=C(C)CCCC2(C)C)cc1 (configuration not stated)"
value_unit = "%"
observed_measurement = 0.26

[[record]]
molecule = "CC1=CCCC(C)(C)C1/C=C/C(C)(O)c1ccsc1 (configuration not stated)"
value_unit = "%"
observed_measurement = 0.025

[[record]]
molecule = "CCCOc1ccc(C(C)(O)/C=C/C2=C(C)CCCC2(C)C)cc1 (configuration not stated)"
value_unit = "%"
observed_measurement = 0.52

